Measured values drawn from paper PMC3372685 for this set.

Target: zebrafish α3β4 nAChR (Danio rerio, UniProt A0A0R4ISQ3+A0A8M1QHJ5)
Assay: Agonist-evoked responses, two-electrode voltage clamp in Xenopus oocytes
quantity.kind: pEC50
Units for pEC50: none; it is -log10 of a concentration expressed in mol/L.

Examples with their reported pEC50 follow.
mol	quantity.kind	readout.number
CN1CCC[C@H]1c1cccnc1	pEC50	4.89
O=c1cccc2n1C[C@@H]1CNC[C@H]2C1	pEC50	4.96

# evaluate next
Field pEC50 (entry CC(=O)OCC[N+](C)(C)C ) reads 4.14

---

Biological target: zebrafish α7 nAChR (Danio rerio)
Sequence (Q800C7 23-509): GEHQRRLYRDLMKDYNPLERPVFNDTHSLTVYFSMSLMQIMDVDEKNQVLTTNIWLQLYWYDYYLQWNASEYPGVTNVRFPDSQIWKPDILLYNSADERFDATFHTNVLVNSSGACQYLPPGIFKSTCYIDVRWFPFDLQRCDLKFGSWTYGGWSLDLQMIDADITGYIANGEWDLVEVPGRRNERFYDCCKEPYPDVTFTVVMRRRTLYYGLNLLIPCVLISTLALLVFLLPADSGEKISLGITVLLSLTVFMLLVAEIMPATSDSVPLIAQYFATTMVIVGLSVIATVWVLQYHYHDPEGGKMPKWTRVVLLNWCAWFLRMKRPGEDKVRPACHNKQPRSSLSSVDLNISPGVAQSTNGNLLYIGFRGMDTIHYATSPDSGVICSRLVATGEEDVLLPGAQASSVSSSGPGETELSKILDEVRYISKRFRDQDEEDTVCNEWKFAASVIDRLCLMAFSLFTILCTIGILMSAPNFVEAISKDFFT
Experiment: cell-based
Conditions: Peak current IC50, α7, co-application with 60 µM ACh
quantity.kind: pIC50
Units for pIC50: none; it is -log10 of a concentration expressed in mol/L.

Field pIC50 (entry CNC1(C)C2CCC(C2)C1(C)C (stereo not shown) [mecamylamine] ) reads 4.55

---

Target: zebrafish α3β4 nAChR (Danio rerio, UniProt A0A0R4ISQ3+A0A8M1QHJ5)
Assay: Inhibition of ACh-evoked responses by co-applied mecamylamine in Xenopus oocytes
Format: cell-based
Settings: Net charge IC50, α3β4, co-application with 100 µM ACh
quantity.kind: IC50 (nM)
Field format: number, assumed nM, no unit text.

Record CNC1(C)C2CCC(C2)C1(C)C (stereo not shown) [mecamylamine] / zebrafish α3β4 nAChR (Danio rerio, UniProt A0A0R4ISQ3+A0A8M1QHJ5), IC50 recorded as 50

---

Target: zebrafish α2β2 nAChR (Danio rerio, UniProt A0ACM8Q9T8+E7F4S7)
Sequence (A0ACM8Q9T8 29-520): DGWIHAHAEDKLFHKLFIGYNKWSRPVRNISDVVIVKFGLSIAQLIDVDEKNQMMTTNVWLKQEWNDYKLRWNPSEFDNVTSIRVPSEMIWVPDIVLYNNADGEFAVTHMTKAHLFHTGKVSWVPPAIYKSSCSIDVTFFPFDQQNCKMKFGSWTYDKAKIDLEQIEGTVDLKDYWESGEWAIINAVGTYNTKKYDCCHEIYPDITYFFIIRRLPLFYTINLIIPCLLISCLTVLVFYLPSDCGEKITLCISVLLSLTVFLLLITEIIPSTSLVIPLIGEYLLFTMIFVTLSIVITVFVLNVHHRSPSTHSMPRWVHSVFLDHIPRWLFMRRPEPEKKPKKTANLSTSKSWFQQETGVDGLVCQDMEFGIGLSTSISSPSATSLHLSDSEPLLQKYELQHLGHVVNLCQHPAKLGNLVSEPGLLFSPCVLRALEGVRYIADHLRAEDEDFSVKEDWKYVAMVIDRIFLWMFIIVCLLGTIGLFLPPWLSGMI
Sequence (E7F4S7 20-543): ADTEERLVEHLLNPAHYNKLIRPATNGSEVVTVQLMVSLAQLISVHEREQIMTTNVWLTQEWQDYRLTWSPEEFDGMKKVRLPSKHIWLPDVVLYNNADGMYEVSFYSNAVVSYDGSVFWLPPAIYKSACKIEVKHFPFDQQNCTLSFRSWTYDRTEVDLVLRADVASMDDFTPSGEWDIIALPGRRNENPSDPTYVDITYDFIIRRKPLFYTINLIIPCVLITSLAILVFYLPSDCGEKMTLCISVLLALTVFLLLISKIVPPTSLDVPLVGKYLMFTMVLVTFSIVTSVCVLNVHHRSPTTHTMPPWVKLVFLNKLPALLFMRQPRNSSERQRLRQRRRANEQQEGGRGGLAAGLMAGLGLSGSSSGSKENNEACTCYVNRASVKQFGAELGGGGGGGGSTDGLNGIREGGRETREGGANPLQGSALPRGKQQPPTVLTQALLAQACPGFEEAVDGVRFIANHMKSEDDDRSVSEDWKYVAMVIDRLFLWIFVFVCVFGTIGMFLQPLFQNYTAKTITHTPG
Experiment: cell-based
Settings: Peak current IC50, α2β2, co-application with 30 µM ACh
quantity.kind: IC50 (µM)
Field format: number, assumed µM, no unit text.

Field IC50 (entry CNC1(C)C2CCC(C2)C1(C)C (stereo not shown) ) reads 3

---

Molecular target: zebrafish α2β2 nAChR (Danio rerio, UniProt A0ACM8Q9T8+E7F4S7)
Test: cell-based
quantity.kind: pEC50
Units for pEC50: none; it is -log10 of a concentration expressed in mol/L.

Field pEC50 (entry O=c1cccc2n1C[C@@H]1CNC[C@H]2C1 ) reads 5.39

---

Molecular target: zebrafish α3β4 nAChR (Danio rerio, UniProt A0A0R4ISQ3+A0A8M1QHJ5)
Assay: Inhibition of ACh-evoked responses by co-applied mecamylamine in Xenopus oocytes
Format: cell-based
Conditions: Peak current IC50, α3β4, co-application with 100 µM ACh
quantity.kind: IC50 (nM)
Field format: number, assumed nM, no unit text.

Field IC50 (entry CNC1(C)C2CCC(C2)C1(C)C (stereo not shown) ) reads 600
